Hello, the source for this data is patent US20120178701A1, in case you need it.

assayed-target: T1, human recombinant melanocortin-4 receptor (human, UniProt P32245 1-332)
T1 construct: whole, on cells; cAMP assays used the whole cells; also called hMC4-R; MC4-R
T1 sequence (P32245 whole entry): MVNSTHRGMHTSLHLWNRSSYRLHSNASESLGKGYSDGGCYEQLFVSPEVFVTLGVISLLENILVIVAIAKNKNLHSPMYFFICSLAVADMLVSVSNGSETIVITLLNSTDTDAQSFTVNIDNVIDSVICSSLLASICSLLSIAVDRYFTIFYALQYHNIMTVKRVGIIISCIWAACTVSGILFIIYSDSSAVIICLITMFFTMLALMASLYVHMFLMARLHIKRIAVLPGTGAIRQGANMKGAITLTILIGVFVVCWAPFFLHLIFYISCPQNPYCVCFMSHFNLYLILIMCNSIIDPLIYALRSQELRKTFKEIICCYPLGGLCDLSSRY
assay-details: competitive inhibition of Eu-NDP-α-MSH (TRF), hMC4-R HEK-293 membranes
pKi: −log10 of the molar value. Bridge positions count the residues as written; N and C are the ends. Square brackets hold non-standard residues; d marks the D form. * marks the point of attachment. Pro(4R-Bn) = O=C(O)[C@@H]1C[C@@H](Cc2ccccc2)CN1; Orn = NCCC[C@H](N)C(=O)O; NHcPr = C1CC1N*
assay-readout: pKi

Worked cases, answers included:
binder	pKi
Ac-RD[Pro(4R-Bn)][dF]RWK-NH2 (lactam 2-7, also called peptide No. 18) [Ac-Arg-cyclo(Asp-Pro(4R-Bzl)-D-Phe-Arg-Trp-Lys)-NH2]	8.52
RDWFRWK (HELM PEPTIDE1{[ac].R.D.W.[dF].R.W.K.[am]}$PEPTIDE1,PEPTIDE1,3:R3-8:R3$$$V2.0; SMILES CC(=O)N[C@@H](CCCNC(=N)N)C(=O)N[C@H]1CC(=O)NCCCC[C@@H](C(N)=O)NC(=O)[C@H](Cc2c[nH]c3ccccc23)NC(=O)[C@H](CCCNC(=N)N)NC(=O)[C@@H](Cc2ccccc2)NC(=O)[C@H](Cc2c[nH]c3ccccc23)NC1=O, also called peptide No. 36) [Ac-Arg-cyclo(Asp-Trp-D-Phe-Arg-Trp-Lys)-NH2]	7.43
Ac-[dR]DA[dF]RWK-NH2 (lactam 2-7, also called peptide No. 70) [Ac-D-Arg-cyclo(Asp-Ala-D-Phe-Arg-Trp-Lys)-NH2]	7.34
RDAFRWK (HELM PEPTIDE1{[ac].R.D.A.[dF].R.W.K}$PEPTIDE1,PEPTIDE1,3:R3-8:R3$$$V2.0; SMILES CC(=O)N[C@@H](CCCNC(=N)N)C(=O)N[C@H]1CC(=O)NCCCC[C@@H](C(=O)O)NC(=O)[C@H](Cc2c[nH]c3ccccc23)NC(=O)[C@H](CCCNC(=N)N)NC(=O)[C@@H](Cc2ccccc2)NC(=O)[C@H](C)NC1=O, also called peptide No. 52) [Ac-Arg-cyclo(Asp-Ala-D-Phe-Arg-Trp-Lys)-OH]	6.84
Ac-RDT[dF]RWK-NH2 (lactam 2-7, also called peptide No. 35) [Ac-Arg-cyclo(Asp-Thr-D-Phe-Arg-Trp-Lys)-NH2]	6.85
Ac-[dR]EH[dF]RW[Orn]-OH (lactam 2-7, also called peptide No. 85) [Ac-D-Arg-cyclo(Glu-His-D-Phe-Arg-Trp-Orn)-OH]	7.40
RDKFKWK (HELM PEPTIDE1{[ac].R.D.K.[dF].K.W.K.[am]}$PEPTIDE1,PEPTIDE1,3:R3-8:R3$$$V2.0; SMILES CC(=O)N[C@@H](CCCNC(=N)N)C(=O)N[C@H]1CC(=O)NCCCC[C@@H](C(N)=O)NC(=O)[C@H](Cc2c[nH]c3ccccc23)NC(=O)[C@H](CCCCN)NC(=O)[C@@H](Cc2ccccc2)NC(=O)[C@H](CCCCN)NC1=O, also called peptide No. 7) [Ac-Arg-cyclo(Asp-Lys-D-Phe-Lys-Trp-Lys)-NH2]	5.53
Ac-REH[dF]RW[Orn]-NHcPr (lactam 2-7, also called peptide No. 110) [Ac-Arg-cyclo(Glu-His-D-Phe-Arg-Trp-Orn)-NH-cyclopropyl]	9.00

(P) Ac-RKH[dF]RWD-NH2 (lactam 2-7, also called peptide No. 96) [Ac-Arg-cyclo(Lys-His-D-Phe-Arg-Trp-Asp)-NH2]
(Q) Ac-[dR]D[Pro(4R-Bn)][dF]RWK-NH2 (lactam 2-7, also called peptide No. 72) [Ac-D-Arg-cyclo(Asp-Pro(4R-Bzl)-D-Phe-Arg-Trp-Lys)-NH2]
(R) Ac-RD[Pro(4R-3-Cl-Bzl)][dF]RWK-NH2 (lactam 2-7, also called peptide No. 124) [Ac-Arg-cyclo(Asp-Pro(4R-3-Cl-Bzl)-D-Phe-Arg-Trp-Lys)-NH2]
### Prompt Could you please order the items by pKi, going from the lowest number to the highest? Would you mind listing the labels in the order requested?
### Response R, Q, P
(R: 7.72, Q: 8.70, P: 9.00)
